Ref: PubChem BioAssay AID1159580

experiment summary: chemical genetic growth profiling, strain panel (AID 1159580);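 further: tested at 20 µM; growth read once vehicle control cultures reached saturation at 30 °C; 1 = growth at the plate median or of vehicle wells; lower values mean less growth of the strain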
measurement parameters: S. cerevisiae deletion strains, growth OD, locus YCL011C, strain gbp2, active compounds read low
Hit rate of the full screen: of about 5,500 compounds, about 2,000 (36%) were called active. Another 18% or so got no clear call; they are omitted. Some of the results follow.
Please provide measured normalized growth for the entries that follow.
Respond numerically, and do not add a unit to the figure.

I'd like to know its normalized growth. The compound in question is "Clc1ccc(C(c2ccc(Cl)cc2)C(Cl)(Cl)Cl)cc1"
1.01

Record: COC(=O)C[C@H]1C2(C)CC34OC5(C)O[C@@]6([C@H](OC)C(OC(=O)C(C)C)[C@]7(C)C(/C(=C(/OC)C(C)C)C(=O)O[C@H]7c7ccoc7)[C@@]6(O5)[C@H](OC)[C@@]3(OC)C2OC(C)=O)[C@]14C (stereo partly specified)
0.975

Record: "CCN(CC)C(=O)N1CCN(C)CC1"
0.971

Record: "CCCCCCCCC(=O)NCc1ccc(O)c(OC)c1"
0.981

Record: "CNC(=O)O/N=C(\C)SC"
1.01

Record: Cn1c(=O)c2c(ncn2CC(O)CO)n(C)c1=O (stereo unspecified)
0.99
